Measured values drawn from PubChem BioAssay AID179 for this set.

- System: CEM cells HIV-1 protection, formazan growth assay
- assay.comment: NCI AIDS Antiviral Assay
- run.parameters: measured here: growth of uninfected CEM cells
- Protocol: The ability of compounds to protect human CEM cells from HIV-1 infection is measured as a screen for new compounds capable of inhibiting the HIV virus. Five concentrations of drug were tested on uninfected and infected cells and cell growth was measured using a soluble formazan assay. […] Compounds that provided at least 50% protection were retested. Compounds that provided at least 50% protection on retest were listed as moderately active. […]
Overview of recorded IC50 for various compounds
Number in µM, nothing else.

Briefly, IC50 measured for Cc1c2ccccc2nc(CSC#N)[n+]1[O-] : 36.3

* * *

- System: CEM cells HIV-1 protection, formazan growth assay
- assay.comment: NCI AIDS Antiviral Assay
pEC50: −log10 of the molar value.
As shown below, each of these molecules has a reported pEC50 value.

Reference set (4 entries):
molecule: C=CCn1c2c(c3ccccc3c1=O)C(=O)c1ccccc1-2
assay.system: CEM cells HIV-1 protection, formazan growth assay
pEC50: < 4.04

molecule: C=C1CC(Cn2cc(C)c(=O)[nH]c2=O)(c2ccc(Cl)cc2)OC1=O (stereo not given)
assay.system: CEM cells HIV-1 protection, formazan growth assay
pEC50: < 4.70

molecule: O=c1[nH]c(=O)n(C2CC(O)C(CO)O2)cc1C(OCC(F)(F)F)OCC(F)(F)F (stereo not given)
assay.system: CEM cells HIV-1 protection, formazan growth assay
pEC50: < 3.60

molecule: CCN(CC)c1nc(=O)c(C(=O)C(C)(C)C)c(C(C)(C)C)o1
assay.system: CEM cells HIV-1 protection, formazan growth assay
pEC50: < 3.70

Proceeding to the next molecule to report its pEC50.
Measured pEC50 of CCOC(=O)CSc1c(C(=O)OCC)c(=O)n(-c2ccccc2)c(=S)n1-c1ccccc1 : < 3.70

* * *

- Test system: CEM cells HIV-1 protection, formazan growth assay
- assay.comment: NCI AIDS Antiviral Assay;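 active means compounds giving half or more protection of infected cells from virus-caused growth loss, again on retest; inactive means the rest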
Returns: one label drawn from t = active, f = inactive

Example entries and their recorded answers appear below.
molecule: O=C(/C=C/c1ccc2c(c1)OCO2)NCCc1ccco1
assay.system: CEM cells HIV-1 protection, formazan growth assay
answer.label: f

molecule: O=C1C2C3C=CC(C3)C2S(=O)(=O)C2C3C=CC(C3)C12 (centres undefined)
assay.system: CEM cells HIV-1 protection, formazan growth assay
answer.label: f

molecule: COc1cc(/C=C2\SC(=S)N(/C=C3\C(=O)C=C(C)OC3=O)C2=O)cc(OC)c1OC
assay.system: CEM cells HIV-1 protection, formazan growth assay
answer.label: f

molecule: CN(C)c1c(-c2ccccc2)cc(-c2ccccc2)[nH]c1=O
assay.system: CEM cells HIV-1 protection, formazan growth assay
answer.label: f

molecule: CC(CC(=O)c1ccccc1)C(Sc1ccccc1)(Sc1ccccc1)Sc1ccccc1 (centres undefined)
assay.system: CEM cells HIV-1 protection, formazan growth assay
answer.label: f

molecule: COP(=O)(OC)C(N)Cc1c[nH]c2ccccc12 (centres undefined)
assay.system: CEM cells HIV-1 protection, formazan growth assay
answer.label: f

Prompt: Assay outcome for COc1ccc(/C=C2\N=C(NN)N=C2Cl)cc1 : what was it?
Response: f

Prompt: Which outcome was assigned to CC(C)OP(=O)(OC(C)C)/C(=N/Nc1ccc([N+](=O)[O-])cc1)NNC(=O)c1ccccc1 in this test?
Response: f

Prompt: Kindly provide the recorded test outcome for the following molecule: CCCCCCCCN(/N=C/c1c2c(O)c3c(O)c(C)c4c(c3c1O)C(=O)C(C)(O/C=C\C(OC)C(C)C(OC(C)=O)C(C)C(O)C(C)C(O)C(C)/C=C/C=C(C)C(=O)N2)O4)C12CC3CC(CC(C3)C1)C2 (centres undefined)
Response: f

Prompt: Write down the call the test reported for this molecule. Item: COC(=O)[C@@H]1[C@H]2CC[C@]3(C)[C@@H](OC(C)=O)CC[C@H]3[C@@H]2CC[C@H]1C(C)=O
Response: f

Prompt: Fill in: this test's call for CC(=O)Oc1ccc(N2C(=O)C3c4[nH]c5ccccc5c4C4CCC(C(C)(C)C)CC4C3C2=O)cc1 (centres undefined) is ___
Response: f

Prompt: Lab log entry: NC12CCC(N)(c3ccccc31)c1ccccc12 — outcome as called in the assay?
Response: f

Prompt: # outcome recorded in this test, key = O=C1NC2CC=CCC12 (centres undefined)
Response: f

Prompt: Lab log entry: CC(O)(c1ccccc1)c1nccc2ccccc12 (centres undefined) — outcome as called in the assay?
Response: f

Prompt: In this assay, the call recorded for COc1cc(C(=O)/C=C/c2ccc(OCC#N)cc2)cc(OC)c1OC was what?
Response: f

Prompt: Returns: the outcome recorded for COC(=O)/C=C1\SC2(OC1=Nc1ccccc1)C1CC3CC(C1)CC2C3 (centres undefined) in this assay.
Response: f

Prompt: For C=CCN(Cc1ccncc1)C(=O)C(O)(c1ccccc1)c1ccccc1 , which call appears in the assay record?
Response: f

Prompt: Name the outcome recorded for N#C/C(C(=N)c1ccccc1)=C1\SS/C(=C(\C#N)C(=N)c2ccccc2)S1 in the assay.
Response: f

Prompt: What was the test verdict on CN(C)/C=C\c1c([N+](=O)[O-])ncn1C ?
Response: f

Prompt: Any idea what this test logged for CCN(CC)CCCNc1cnnc2cc(Cl)ccc12 ?
Response: f

Prompt: Hi, do you know how Nc1ccc(C(=O)NN2C(=O)C(Cl)C2c2ccccc2Cl)cc1 (centres undefined) came out in this test?
Response: f

Prompt: GET /call?item= Cc1ccc(C2=Nn3c(nc4sc5c(c4c3=O)CCCC5)SC2)cc1 returns the recorded outcome of this test.
Response: f

Prompt: Could you please tell me the result logged for CN(N)c1cn[nH]c(=O)c1Cl in this assay?
Response: f

Prompt: Could you check what this test reported for CO[C@@]12[C@H](COC(N)=O)C3=C(C(=O)C(C)=C(N)C3=O)N1C[C@@H]1N[C@@H]12 ?
Response: f

Prompt: GET /call?item= CCOC(=O)C(NC(=O)CC)(C(F)(F)F)P(=O)(OCC)OCC (centres undefined) returns the recorded outcome of this test.
Response: f

Prompt: How was Cc1oc(C)c2c1C(=O)c1ccccc1C2=O classified in this test?
Response: f

Prompt: Query: recorded result category for Cc1ccc2c(c1)C1(SC(C)C(=O)N1c1ccc(I)cc1)C(=O)N2 (centres undefined) in this test
Response: f

* * *

# key: entry, value: IC50
- System: CEM cells HIV-1 protection, formazan growth assay
- assay.comment: NCI AIDS Antiviral Assay
- run.parameters: measured here: growth of uninfected CEM cells
Where a SMILES comes first, the peptide text is derived from it.

Below, each entry is followed by its recorded IC50 result.
compound: C/C(C=O)=C\c1ccc(N(C)C)cc1
assay.system: CEM cells HIV-1 protection, formazan growth assay
reported.value: > 38 µM
//
compound: NC1(C(=O)N2CCCC2C(=O)O)CCCC1 (configuration not stated) (HELM PEPTIDE1{[NC1(C(=O)[*:2])CCCC1].[O=C(O)C1CCCN1[*:1]]}$$$$V2.0)
assay.system: CEM cells HIV-1 protection, formazan growth assay
reported.value: > 200 µM
//
compound: C=C1C2CCC3(C4C[C@@H]5C6(C)CCCC5([C@H](O4)N4CCO[C@H]46)[C@@H]3C2)C1OC(C)=O (some centres not stated)
assay.system: CEM cells HIV-1 protection, formazan growth assay
reported.value: > 18.2 µM
//
compound: Oc1cccc(/C=C/c2ccncc2)c1
assay.system: CEM cells HIV-1 protection, formazan growth assay
reported.value: > 36.3 µM
//
compound: NC1Cc2ccccc2OC1=O (configuration not stated)
assay.system: CEM cells HIV-1 protection, formazan growth assay
reported.value: > 200 µM
//
compound: CCC(C)(C)C1CCC2c3c([nH]c4ccccc34)C3C(=O)N(c4ccc(OC)cc4)C(=O)C3C2C1 (configuration not stated)
assay.system: CEM cells HIV-1 protection, formazan growth assay
reported.value: 7.76 µM

The compound Cc1nn(C(=O)c2ccc(Cl)cc2)c2c1C(/C=C/c1ccccc1)SC(N)=N2 (configuration not stated) showed IC50 equal to 158 µM

Given item CC(NC(=O)C(N)CC(=O)O)NC(=O)N(C)C(C)(C)C (configuration not stated) , the value recorded as its IC50 is > 200 µM

The compound listed as Cc1cn(CCOCCOC(=O)NC(CCCNC(N)=O)C(=O)O)c(=O)[nH]c1=O (configuration not stated) has a reported IC50 of > 200 µM

According to the records, this compound CC(C)OC(=S)Nc1ccc(Cl)c(COC(C)(C)C)c1 displays IC50 of 31.6 µM

Form: compound = CCCCS(=O)(=O)c1ccc(O)c(C(=O)Nc2cccc(C(F)(F)F)c2)c1 ; IC50 = 1.91 µM

Noted for CC(=O)Nc1c(C(=O)O)[nH]c(=O)[nH]c1=O : its IC50 reads > 200 µM

For record COC(=O)CC(=O)/C(=C/C(C/C=C(\C(=O)CC(=O)OC)C(=O)OC)OC)C(=O)OC (configuration not stated) the listed IC50 is > 200 µM

Briefly, IC50 measured for O=C(Nc1ccccc1)c1cc(S(=O)(=O)N2CCNC2=O)c(S)cc1Cl : 132 µM

So, CC(=O)NC1=NC(=O)/C(=C/c2ccccc2Cl)N1C ? Its IC50 was > 200 µM

Short answer for C#CC1(O)CCC2C3CCC4=C(CCC(=O)C4)C3CCC21C (configuration not stated) : IC50 was 166 µM

Recorded result, CC(=O)c1nc2ccccc2n1CC(=O)c1ccc([N+](=O)[O-])cc1 , IC50: 7.59 µM

Noted for Cc1cc(Br)cc(C)c1NC(=O)C(=O)C(C(=O)c1ccncc1)C1OC(=O)c2ccccc21 (configuration not stated) : its IC50 reads > 339 µM

The reported IC50 of the compound OCc1ccc2c(c1)CC1(Cc3ccccc3C1)C2 was 20 µM

Briefly, IC50 measured for O=C1NC23CC=CCC12CCC3 (configuration not stated) : > 1230 µM

Per the record, CCOC(=O)CCC1(C(=O)OCC)CCCC1=O (configuration not stated) has IC50 of > 263 µM

IC50 reported for this compound CCCCCCCCNC(=O)/C(=C\c1ccc2c(c1)OCO2)NC(=O)c1ccccc1 : 45.7 µM
